Values from patent US20250051277A1

Format: physicochemical
Conditions: SGF with pepsin, pH 1.5, 37° C.; time 1 h; first of two values
Assignment: determine reported Condition 1 Conversion (%), first value of pair x/y for the given compounds.
# value in %; strip the unit string

**Q:** Give the measured Condition 1 Conversion (%), first value of pair x/y of COc1ccc([C@@]23CCC(=NOCC(=O)OC(C)(C)C)C[C@@H]2N(C)CC3)cc1OC .
**A:** 1.12

**Q:** Give the measured Condition 1 Conversion (%), first value of pair x/y of COc1ccc([C@@]23CCC(=NOC4CCCCO4)C[C@@H]2N(C)CC3)cc1OC (stereo partly shown) .
**A:** 7.83

**Q:** Give the measured Condition 1 Conversion (%), first value of pair x/y of COc1ccc([C@@]23CC/C(=N/OC(C)(C)OC)C[C@@H]2N(C)CC3)cc1OC .
**A:** 0

**Q:** Give the measured Condition 1 Conversion (%), first value of pair x/y of COc1ccc([C@@]23CC/C(=N\OC(C)(C)OC)C[C@@H]2N(C)CC3)cc1OC .
**A:** 0

* * *

Experiment: Plasma Stability Assay of Example A3, mouse plasma
Details: 30 min; 5 μM, 37° C.; % of prodrug compound remaining
Class key for Mouse Plasma Prodrug (%) values: lower range (below 2%), middle range (2% to below 20%), upper range (20% or more)

**Q:** // bin(item) where item = COc1ccc([C@@]23CCC(OC(=O)c4ccc(C#N)cc4)=C[C@@H]2N(C)CC3)cc1OC
**A:** middle range

**Q:** // bin(item) where item = COc1ccc([C@@]23CCC(OC(=O)c4cccc(N(C)C)c4)=C[C@@H]2N(C)CC3)cc1OC
**A:** middle range

**Q:** // bin(item) where item = C=C(C)C(=O)OC1=C[C@@H]2N(C)CC[C@]2(c2ccc(OC)c(OC)c2)CC1
**A:** middle range

**Q:** // bin(item) where item = COc1ccc([C@@]23CCC(OC(=O)c4ccc(N(C)C)cc4)=C[C@@H]2N(C)CC3)cc1OC
**A:** upper range

**Q:** // bin(item) where item = COc1ccc([C@@]23CCC(OC(=O)c4cccc(C)c4)=C[C@@H]2N(C)CC3)cc1OC
**A:** middle range

**Q:** // bin(item) where item = C/C=C(\C)C(=O)OC1=C[C@@H]2N(C)CC[C@]2(c2ccc(OC)c(OC)c2)CC1
**A:** lower range

**Q:** // bin(item) where item = COc1ccc([C@@]23CCC(OC(=O)c4cccc(C)c4C)=C[C@@H]2N(C)CC3)cc1OC
**A:** upper range

**Q:** // bin(item) where item = COc1ccc([C@@]23CCC(OC(=O)c4c(C)cccc4C)=C[C@@H]2N(C)CC3)cc1OC
**A:** upper range

**Q:** // bin(item) where item = COc1ccc([C@@]23CCC(OC(=O)C(C)(C)C)=C[C@@H]2N(C)CC3)cc1OC
**A:** upper range

**Q:** // bin(item) where item = COc1ccc([C@@]23CCC(=O)C[C@@H]2N(C)CC3)cc1OC [Compound 001, mesembrine, reference compound]
**A:** upper range

**Q:** // bin(item) where item = COc1ccc([C@@]23CCC(OC(=O)c4ccc(C(F)(F)F)cc4)=C[C@@H]2N(C)CC3)cc1OC
**A:** lower range

**Q:** // bin(item) where item = COc1ccc([C@@]23CCC(OC(=O)C4CC4)=C[C@@H]2N(C)CC3)cc1OC
**A:** lower range

**Q:** // bin(item) where item = COc1ccc([C@@]23CCC(OC(=O)c4ccc(F)cc4)=C[C@@H]2N(C)CC3)cc1OC
**A:** lower range

**Q:** // bin(item) where item = COc1ccc([C@@]23CCC(OC(=O)c4ccc(C(C)C)cc4)=C[C@@H]2N(C)CC3)cc1OC
**A:** lower range
